Values compiled from patent US11987586B1.

# OX2R agonist activity (3 uM, %) per entry
Biological target: human OX2 receptor (Homo sapiens, UniProt O43614)
Construct: expressed in transfected cells
Sequence (O43614 1-444): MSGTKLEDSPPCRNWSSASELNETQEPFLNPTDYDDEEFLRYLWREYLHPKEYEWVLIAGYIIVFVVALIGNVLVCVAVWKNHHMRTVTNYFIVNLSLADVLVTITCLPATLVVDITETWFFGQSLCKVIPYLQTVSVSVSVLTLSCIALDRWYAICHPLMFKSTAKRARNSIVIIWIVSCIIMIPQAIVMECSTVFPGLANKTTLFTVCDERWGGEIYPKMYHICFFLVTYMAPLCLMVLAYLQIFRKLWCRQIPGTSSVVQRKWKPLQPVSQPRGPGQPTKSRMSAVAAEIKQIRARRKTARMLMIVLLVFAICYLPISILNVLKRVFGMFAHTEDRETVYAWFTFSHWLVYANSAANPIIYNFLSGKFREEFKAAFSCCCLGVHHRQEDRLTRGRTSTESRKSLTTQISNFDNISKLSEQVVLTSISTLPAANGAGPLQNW
Assay: Measurement of orexin type 2 receptor agonist activity (calcium fluorescence, Fluo-4, FDSS)
Assay type: cell-based
Conditions: 3 uM test compound; CHO cells expressing human OX2 receptor; DMSO = 0%, 10 nM orexin A (human) = 100%
Please state the figure in %; there is no need to write the unit.

>>> df
                                   compound  units_text  result_number
0  CCS(=O)(=O)N[C@@H]1CN2C(=O)N(c3noc4cccc(-c5c(F)cc(F)cc5F)c34)CC[C@@H]2C1(F)F [Example 260]           %            108

The measured OX2R agonist activity (3 uM, %) associated with CCS(=O)(=O)N[C@H]1C[C@H]2CN(c3noc4cccc(-c5c(F)cc(F)cc5F)c34)C(=O)N2C1 [Example 65] reads 99

The measured OX2R agonist activity (3 uM, %) associated with CS(=O)(=O)N[C@@H]1CN2C(=O)N(c3noc4cccc(-c5ccccc5F)c34)CC[C@@H]2C1(F)F [Example 273] reads 103

The measured OX2R agonist activity (3 uM, %) associated with CCS(=O)(=O)N[C@H]1Cc2c(C)n(-c3noc4cc(C(F)(F)F)cc(-c5c(F)cccc5F)c34)c(=O)n2C1 [Example 86] reads 103

The measured OX2R agonist activity (3 uM, %) associated with Cc1cc2onc(-n3cc4n(c3=O)C[C@@H](NS(=O)(=O)CF)C4(F)F)c2c(-c2c(F)cc(F)cc2F)n1 [Example 201] reads 114

The measured OX2R agonist activity (3 uM, %) associated with CCS(=O)(=O)N[C@@H]1CN2C(=O)N(c3noc4nccc(-c5c(F)cc(F)cc5F)c34)CC[C@@H]2C1(F)F [Example 235] reads 113

The measured OX2R agonist activity (3 uM, %) associated with CCS(=O)(=O)N[C@@H]1CN2C(=O)N(c3noc4ccc(F)c(-c5c(F)cc(F)cc5F)c34)CC[C@@H]2C1(F)F [Example 204] reads 109

The measured OX2R agonist activity (3 uM, %) associated with CCOc1cc(-c2c(F)cccc2F)c2c(N3C[C@H]4N(C[C@@H](NS(C)(=O)=O)C4(F)F)C3=O)noc2c1 [Example 145] reads 105

The measured OX2R agonist activity (3 uM, %) associated with CS(=O)(=O)N[C@@H]1Cn2c(cn(-c3noc4cc(F)cc(-c5c(F)cc(F)cc5F)c34)c2=O)C1(F)F [Example 108] reads 109
